system: VCaP cells; experiment: Inhibition of proliferation of other prostate cancer cells: VCaP; assay type: cell-based; settings: Homo sapiens, same method as LNCaP/AR
The entries below are paired with their reported IC50.
Kindly provide the numeric value in µM only, without the unit symbol.

Solved cases (2 shown):
CCN(c1ccc(-n2cnnc2)cc1)c1cc(-c2c(C)noc2C)ccc1C = 1
CCN(c1ccc(-n2ccnc2)c(C(F)(F)F)c1)c1cc(-c2c(C)noc2C)ccc1C = 0.98

// next entry
Please indicate IC50 recorded for CCN(c1ccc(-n2ccnc2C)cc1)c1cc(-c2c(C)noc2C)ccc1C
0.99

###

tested on: 22RV1 cells; assay: Inhibition of proliferation of other prostate cancer cells: 22RV1; assay type: cell-based; conditions: Homo sapiens, same method as LNCaP/AR
Below, each entry is listed with its recorded log10 of IC50.
For clarity, the numbers are log10 values of IC50 expressed in µM.

Supply measured log10 of IC50 of CCN(c1ccc(-n2ccnc2)c(Br)c1)c1cc(-c2c(C)noc2C)ccc1C in your reply.
0.97

###

Molecular target: androgen receptor (AR) (Homo sapiens)
Construct: host or cells: HEK293
Sequence (P10275 1-920): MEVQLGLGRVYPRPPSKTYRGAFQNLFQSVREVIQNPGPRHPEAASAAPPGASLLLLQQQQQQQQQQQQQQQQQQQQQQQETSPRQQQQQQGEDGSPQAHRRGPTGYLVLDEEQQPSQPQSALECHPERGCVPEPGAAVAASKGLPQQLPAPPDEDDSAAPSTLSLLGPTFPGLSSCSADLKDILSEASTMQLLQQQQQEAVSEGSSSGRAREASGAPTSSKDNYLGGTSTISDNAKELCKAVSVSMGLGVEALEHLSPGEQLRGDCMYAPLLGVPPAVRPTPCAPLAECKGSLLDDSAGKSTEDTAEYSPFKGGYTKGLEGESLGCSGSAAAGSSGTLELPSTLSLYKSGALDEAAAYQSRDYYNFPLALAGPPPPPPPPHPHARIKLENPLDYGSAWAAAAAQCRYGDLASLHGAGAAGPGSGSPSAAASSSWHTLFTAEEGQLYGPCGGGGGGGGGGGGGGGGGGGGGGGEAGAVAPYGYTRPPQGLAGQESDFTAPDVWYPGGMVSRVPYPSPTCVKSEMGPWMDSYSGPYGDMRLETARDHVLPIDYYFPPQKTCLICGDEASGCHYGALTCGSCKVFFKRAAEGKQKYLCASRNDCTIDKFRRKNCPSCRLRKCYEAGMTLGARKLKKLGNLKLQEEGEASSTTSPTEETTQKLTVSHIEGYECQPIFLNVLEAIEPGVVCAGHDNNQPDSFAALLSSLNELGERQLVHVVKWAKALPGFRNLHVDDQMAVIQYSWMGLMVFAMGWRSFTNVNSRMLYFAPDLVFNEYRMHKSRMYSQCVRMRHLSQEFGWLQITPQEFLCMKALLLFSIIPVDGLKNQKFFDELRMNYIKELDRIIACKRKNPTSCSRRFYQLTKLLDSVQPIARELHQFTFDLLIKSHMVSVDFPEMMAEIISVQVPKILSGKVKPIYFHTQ
Test: Inhibitory activity on the function of androgen receptor (AR), luciferase reporter in transfected cells
Type: cell-based
Conditions: transfected with AR and pGL4.36, testosterone 2 nM, Steady-Glo
Method: Experimental Example 2 the Inhibitory Activity of the Compound According to the Present Invention on the Function of Androgen Receptor (AR) Androgen receptor clone (Origene, Cat. No. RC235415) pGL4.36 vector (Promega, Cat. No. E1360) […] 6) Steady-Glo was added at 100 μL/well to the cell culture plate, and then the plate was left at room temperature for 15 min, followed by reading on Envision. […]
measurement_name: IC50

Some solved cases for reference:
CCN(c1ccc(F)c(-n2ccnc2)c1)c1cc(-c2c(C)noc2C)ccc1C = 0.83 µM
CCN(c1ccc(C(C)(C)C#N)cc1)c1cc(-c2c(C)noc2C)ccc1C = 1.6 µM
CCN(c1ccc(-n2ccnc2)c(F)c1)c1cc(-c2c(C)noc2C)ccc1C = 0.45 µM
CCN(c1ccc(-c2ccnn2C)cc1)c1cc(-c2c(C)noc2C)ccc1C = 3.4 µM

Okay, now this molecule:
For CCN(c1ccc(C#N)c(Cl)c1)c1cc(-c2c(C)noc2C)ccc1C , write its IC50.
1.5 µM
